Data provenance: patent US11136296B2

# tested_on: FP receptor (Homo sapiens (Human), UniProt P43088)
# Sequence (P43088 whole entry): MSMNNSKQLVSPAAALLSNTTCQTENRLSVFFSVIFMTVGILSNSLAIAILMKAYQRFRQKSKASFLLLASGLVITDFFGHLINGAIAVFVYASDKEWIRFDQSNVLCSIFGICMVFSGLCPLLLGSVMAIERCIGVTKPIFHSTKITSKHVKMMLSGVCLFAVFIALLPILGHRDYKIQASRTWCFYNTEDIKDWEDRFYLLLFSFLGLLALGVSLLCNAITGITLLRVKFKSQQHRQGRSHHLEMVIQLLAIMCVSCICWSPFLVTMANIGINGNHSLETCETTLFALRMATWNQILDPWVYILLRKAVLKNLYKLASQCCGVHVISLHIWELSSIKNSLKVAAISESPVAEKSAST
# measurement_protocol: In vitro test of inhibition of human FP receptor activity (PGF2α-induced calcium flux in FP-expressing CHEM1 cells)
# recorded_conditions: PGF2α-induced (2 nM) calcium flux in FP-expressing CHEM1 cells; some as mean values from multiple determinations
# From the text: Table 1 below lists the IC50 values from this assay for individual working examples of the invention (some as mean values from multiple independent individual determinations): […]
measured_property: IC50 (nM)
Your answer should be a plain number; it is taken to be in nM.

Prompt: Record request: IC50 value, item Cc1c(-c2ccccc2)nc2ccc(Br)cc2c1C(=O)NCC(C)(C(=O)O)c1ccccc1Cl (single isomer, unassigned; (+)) [Example 37]
Response: 160

Prompt: Field request: IC50 | item: Cc1cccc(C(CNC(=O)c2c(C)c(-c3ccccc3)nc3ccc(Br)cc23)C(=O)O)c1 (single isomer, unassigned; (+)) [Example 52]
Response: 71

Prompt: Could you share which IC50 value was measured for COc1ccccc1C(C)(CNC(=O)c1c(C)c(-c2ccccc2)nc2ccc(Br)cc12)CC(=O)O (racemic) [Example 120] ?
Response: 30

Prompt: Could you tell me which IC50 is on file for Cc1c(-c2ccccc2)nc2ccc(Br)cc2c1C(=O)NCC(C(=O)O)c1ccc(F)cc1 (racemic) [Example 10] ?
Response: 320

Prompt: Which IC50 is reported for this compound? O=C(O)CCC(CNC(=O)c1c(Cl)c(-c2ccccc2)nc2ccc(Br)cc12)c1ccccc1Cl (single isomer, unassigned; (+)) [Example 214]
Response: 4.4

Prompt: Given the entry Cc1c(-c2ccccc2)nc2ccc(Br)cc2c1C(=O)NCC(C)(C(=O)O)c1ncccc1Cl (single isomer, unassigned) [Example 27] , report its measured IC50.
Response: 53
